# TARGET DESC: GDP-bound KRAS wild-type protein (Homo sapiens, UniProt P01116)
# Sequence (P01116 whole entry): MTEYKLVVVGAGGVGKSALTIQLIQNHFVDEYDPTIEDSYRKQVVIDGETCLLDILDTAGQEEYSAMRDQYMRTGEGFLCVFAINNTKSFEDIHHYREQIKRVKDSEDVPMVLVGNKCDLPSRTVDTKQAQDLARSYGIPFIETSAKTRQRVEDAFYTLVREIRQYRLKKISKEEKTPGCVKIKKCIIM
# TEST: Binding to KRAS by surface plasmon resonance (SPR), Single Cycle Kinetics
# CONDITION: SPR Single Cycle Kinetics, GDP-bound KRAS wild-type protein, 1:1 binding model; read-out: KRAS KD
pKd: −log10 of the molar value. Where a SMILES comes first, the peptide text is derived from it. Bridges are numbered along the chain shown (N, C = ends). [ ]: non-standard residue; d: D form. hPhe(3-Cl-4-CF3) = N[C@@H](CCc1ccc(C(F)(F)F)c(Cl)c1)C(=O)O; NPrPhe(4-CF3) = CCCN[C@@H](Cc1ccc(C(F)(F)F)cc1)C(=O)O; NMeGly(cPent) = CN[C@H](C(=O)O)C1CCCC1; NMeL = CN[C@@H](CC(C)C)C(=O)O; Ac4c = NC1(C(=O)O)CCC1; Sar = CNCC(=O)O
ASSAY READOUT: pKd

[[record]]
compound = "CCCN1C(=O)CN(C)C(=O)CN(C)C(=O)[C@H]([C@@H](C)CC)NC(=O)[C@H](CC(C)C)N(C)C(=O)C[C@@H](C(=O)N(C)C)NC(=O)[C@H](C2CCCC2)N(C)C(=O)C2(CCC2)NC(=O)[C@@H]2CCCN2C(=O)[C@H](CCc2ccc(C(F)(F)F)c(Cl)c2)NC(=O)CN(C)C(=O)[C@@H]1Cc1ccc(C(F)(F)F)cc1 [PP0356] ([NMeL]I[Sar][Sar][NPrPhe(4-CF3)][Sar][hPhe(3-Cl-4-CF3)]P[Ac4c][NMeGly(cPent)]D-NMe2; lactam N-11)"
result = 9.31


----------
# TARGET DESC: GDP-bound KRAS wild-type protein (Homo sapiens)
# TEST: Binding to KRAS by surface plasmon resonance (SPR), Single Cycle Kinetics
# CONDITION: SPR Single Cycle Kinetics, GDP-bound KRAS wild-type protein, 1:1 binding model; read-out: KRAS KD
pKd: −log10 of the molar value.
ASSAY READOUT: pKd

[[record]]
compound = "CC[C@H](C)[C@@H]1NC(=O)[C@@H]2CCCCCN2C(=O)C[C@@H](C(=O)N2CCOCC2)N(C)C(=O)[C@H](C2CCCC2)N(C)C(=O)C2(CCCC2)NC(=O)[C@@H]2CCCN2C(=O)[C@H](CCc2cc(F)c(C(F)(F)F)c(F)c2)NC(=O)CN(C)C(=O)[C@H](Cc2ccc(C(F)(F)F)cc2)N2CCCC[C@@H](C2=O)N(C)C(=O)CN(C)C1=O [PP0595]"
result = 9.00

[[record]]
compound = "CCC[C@H]1C(=O)N[C@@H](CC(C)C)C(=O)N(CCOC)CC(=O)N(C)[C@H]2C/C=C\\CCN(C2=O)[C@@H](Cc2ccc(C)cc2)C(=O)N(C)CC(=O)N[C@@H](CCc2ccc(C(F)(F)F)c(OC)c2)C(=O)N2C[C@H](OCC)C[C@H]2C(=O)NC2(CC(C)(C)C2)C(=O)N(C)[C@@H](C2CCCC2)C(=O)N(C)[C@H](C(=O)N(C)C)CC(=O)N1C [PP2522]"
result = 8.49

[[record]]
compound = "CCC[C@H]1C(=O)N[C@@H]([C@@H](C)CC)C(=O)N(C)CC(=O)N(C)[C@H]2C/C=C\\CCN(C2=O)[C@@H](Cc2ccc(C)cc2)C(=O)N(C)CC(=O)N[C@@H](CCc2ccc3sc(F)c(C)c3c2)C(=O)N2C[C@H](OCC)C[C@H]2C(=O)NC2(CC(C)(C)C2)C(=O)N(C)[C@@H](C(CC)CC)C(=O)N(C)[C@H](C(=O)N(C)C)CC(=O)N1C [PP2894]"
result = 9.51

